Target: Poly [ADP-ribose] polymerase 1 (Homo sapiens, UniProt P09874)
Sequence (P09874 whole entry): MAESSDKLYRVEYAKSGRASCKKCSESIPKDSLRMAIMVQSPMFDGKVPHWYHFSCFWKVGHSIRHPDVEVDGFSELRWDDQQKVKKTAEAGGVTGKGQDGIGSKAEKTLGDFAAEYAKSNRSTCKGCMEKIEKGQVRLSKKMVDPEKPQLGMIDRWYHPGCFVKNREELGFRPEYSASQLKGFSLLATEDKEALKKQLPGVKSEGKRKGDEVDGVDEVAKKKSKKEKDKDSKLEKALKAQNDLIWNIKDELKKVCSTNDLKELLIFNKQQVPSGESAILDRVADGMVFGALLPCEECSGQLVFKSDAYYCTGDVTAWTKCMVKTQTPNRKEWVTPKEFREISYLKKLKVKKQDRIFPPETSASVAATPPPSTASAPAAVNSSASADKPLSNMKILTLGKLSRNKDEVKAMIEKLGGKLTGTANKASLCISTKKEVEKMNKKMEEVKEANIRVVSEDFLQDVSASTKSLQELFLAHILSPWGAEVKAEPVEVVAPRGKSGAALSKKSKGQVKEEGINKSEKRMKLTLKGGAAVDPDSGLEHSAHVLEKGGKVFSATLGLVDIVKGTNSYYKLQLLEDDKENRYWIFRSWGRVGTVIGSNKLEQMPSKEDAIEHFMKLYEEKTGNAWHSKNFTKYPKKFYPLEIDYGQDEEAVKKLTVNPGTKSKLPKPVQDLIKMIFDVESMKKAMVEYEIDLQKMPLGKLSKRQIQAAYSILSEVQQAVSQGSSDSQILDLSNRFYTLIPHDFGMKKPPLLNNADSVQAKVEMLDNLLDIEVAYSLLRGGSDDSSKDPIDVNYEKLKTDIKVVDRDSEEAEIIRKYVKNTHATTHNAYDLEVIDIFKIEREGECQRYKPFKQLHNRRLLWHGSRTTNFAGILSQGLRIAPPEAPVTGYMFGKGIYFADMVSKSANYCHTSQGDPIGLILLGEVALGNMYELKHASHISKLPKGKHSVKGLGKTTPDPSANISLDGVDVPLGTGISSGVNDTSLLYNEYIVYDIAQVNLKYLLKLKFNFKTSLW
Experiment: Inhibition of PARP1
pIC50: −log10 of the molar value.
Classification field: Yes = pIC50 at or over 7; No = pIC50 under 7.

| Compound | Cat |
| --- | --- |
| CCCCCN1CCC(Oc2ccc3[nH]c(=O)c4c(c3c2)CCSC4)CC1 | Yes |
| O=c1[nH]c2ccc(OC3CCCNC3)cc2c2c1CSCC2 (stereo not drawn) | Yes |
| O=c1[nH]c2ccc(OC3CCN(c4ccccc4)CC3)cc2c2c1CSCC2 | No |
| CCN1CCC(Oc2ccc3[nH]c(=O)c4c(c3c2)CCSC4)C1 (stereo not drawn) | Yes |
| COCCN1CCC(Oc2ccc3[nH]c(=O)c4c(c3c2)CCSC4)CC1 | Yes |
| CCN1CCCC(Oc2ccc3[nH]c(=O)c4c(c3c2)CCSC4)C1 (stereo not drawn) | Yes |

Q: Dear colleague, could you confirm whether CN1CCCC(Oc2ccc3[nH]c(=O)c4c(c3c2)CCSC4)C1 (stereo not drawn) has pIC50 at or above 7?
Result: Yes

Q: Dear colleague, could you confirm whether O=c1[nH]c2ccc(OC3CCN(CCN4CCCCC4)CC3)cc2c2c1CSCC2 has pIC50 at or above 7?
Result: No

Q: Dear colleague, could you confirm whether O=c1[nH]c2ccc(OC3CCN(CCO)CC3)cc2c2c1CSCC2 has pIC50 at or above 7?
Result: Yes

Q: Dear colleague, could you confirm whether O=c1[nH]c2ccc(OC3CCN(CCc4ccccc4)CC3)cc2c2c1CSCC2 has pIC50 at or above 7?
Result: Yes

###

Experiment: Half life in rat at 10 mg/kg, iv by LC/MS/MS analysis
Format: ADME, organism-based
Design: dose 10 mg/kg, route intravenous
Conditions: in vivo
Measurement type: half-life (h)
Answer with a number only, understood to be in h.

Q: Quick one: half-life of CCCN1CCC(Oc2ccc3[nH]c(=O)c4c(c3c2)CCSC4)CC1 ?
Result: 3.45

###

Assay: Drug level in rat brain at 10 mg/kg, iv after 0.17 hrs by LC/MS/MS analysis
Type: ADME, organism-based
Parameters: dose 10 mg/kg, route intravenous
Details: read-out: Drug uptake
Measurement type: concentration at 0.17 h (ng/g)
Answer with a number only, understood to be in ng/g.

Q: Quick one: concentration at 0.17 h of CCCN1CCC(Oc2ccc3[nH]c(=O)c4c(c3c2)CCSC4)CC1 ?
Result: 1700

###

Assay: Clearance in rat at 10 mg/kg, iv by LC/MS/MS analysis
Format: ADME, organism-based
Design: dose 10 mg/kg, route intravenous
Conditions: in vivo
Measurement type: clearance (mL/min/kg)
Answer with a number only, understood to be in mL/min/kg.

Q: Quick one: clearance of CCCN1CCC(Oc2ccc3[nH]c(=O)c4c(c3c2)CCSC4)CC1 ?
Result: 56.7

###

Experiment: AUC (0 to infinity) in rat at 10 mg/kg, iv by LC/MS/MS analysis
Format: ADME, organism-based
Design: time infinity, dose 10 mg/kg, route intravenous
Conditions: plasma
Measurement type: AUC(0-inf) (µg·h/mL)
Answer with a number only, understood to be in µg·h/mL.

Q: Quick one: AUC(0-inf) of CCCN1CCC(Oc2ccc3[nH]c(=O)c4c(c3c2)CCSC4)CC1 ?
Result: 2.91
